ASSAY_PROCEDURE: Kinetic solubility of compound at pH 7.4
TEST_CONDITIONS: buffer
PROPERTY: solubility kinetic (µM)

> print(dat)
                              smiles.record  numeric.readout
1  CN1CCN(c2cc3c(-c4cccc(N5CCNCC5)n4)n[nH]c3cn2)CC1=O             93.4

[I] CCn1cc(-c2cc3c(-c4cccc(N5CCC[C@@H](N)C5)n4)n[nH]c3cn2)cn1
[II] Cc1ccc(-c2n[nH]c3cnc(-c4cccnc4)cc23)nc1N1CCC[C@H](N)C1
[III] Cc1cncc(-c2cc3c(-c4cccc(N5CCCNCC5)n4)n[nH]c3cn2)n1
rank_up(items): orders items by reported solubility kinetic in ascending numerical order. When ranking, write the labels in the order the request describes.
III, II, I
